Where do the numbers come from? From ChEMBL document CHEMBL3351497.

study system: Integrin alpha-V/beta-8 (Homo sapiens, UniProt P06756+P26012)
Sequence (P06756 31-889 limits assumed): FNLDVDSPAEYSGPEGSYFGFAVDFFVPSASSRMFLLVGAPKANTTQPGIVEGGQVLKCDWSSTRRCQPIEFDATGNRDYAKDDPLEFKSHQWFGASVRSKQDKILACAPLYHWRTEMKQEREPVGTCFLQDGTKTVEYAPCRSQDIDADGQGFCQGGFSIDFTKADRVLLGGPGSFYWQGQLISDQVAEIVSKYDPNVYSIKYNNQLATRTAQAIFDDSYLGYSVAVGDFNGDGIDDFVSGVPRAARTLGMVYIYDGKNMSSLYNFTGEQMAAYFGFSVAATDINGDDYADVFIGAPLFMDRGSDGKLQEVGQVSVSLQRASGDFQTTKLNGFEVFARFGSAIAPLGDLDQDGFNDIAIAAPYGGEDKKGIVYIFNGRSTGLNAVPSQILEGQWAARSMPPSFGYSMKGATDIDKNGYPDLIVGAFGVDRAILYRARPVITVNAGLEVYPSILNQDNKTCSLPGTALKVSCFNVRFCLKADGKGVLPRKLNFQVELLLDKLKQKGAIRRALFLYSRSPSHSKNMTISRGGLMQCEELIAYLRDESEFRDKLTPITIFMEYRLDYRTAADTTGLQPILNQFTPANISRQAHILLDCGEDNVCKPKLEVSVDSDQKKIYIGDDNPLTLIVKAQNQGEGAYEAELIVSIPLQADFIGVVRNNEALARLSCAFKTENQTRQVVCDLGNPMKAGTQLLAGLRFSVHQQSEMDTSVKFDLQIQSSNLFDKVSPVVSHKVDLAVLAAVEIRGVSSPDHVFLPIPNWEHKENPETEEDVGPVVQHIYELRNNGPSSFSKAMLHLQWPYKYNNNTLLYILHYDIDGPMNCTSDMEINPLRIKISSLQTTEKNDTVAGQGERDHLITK
Sequence (P06756 891-1048 limits assumed): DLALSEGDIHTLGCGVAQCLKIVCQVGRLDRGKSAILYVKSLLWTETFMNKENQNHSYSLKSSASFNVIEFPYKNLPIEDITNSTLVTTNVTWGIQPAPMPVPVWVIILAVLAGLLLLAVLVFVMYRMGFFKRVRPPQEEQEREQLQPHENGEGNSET
Sequence (P26012 43-769 limits assumed): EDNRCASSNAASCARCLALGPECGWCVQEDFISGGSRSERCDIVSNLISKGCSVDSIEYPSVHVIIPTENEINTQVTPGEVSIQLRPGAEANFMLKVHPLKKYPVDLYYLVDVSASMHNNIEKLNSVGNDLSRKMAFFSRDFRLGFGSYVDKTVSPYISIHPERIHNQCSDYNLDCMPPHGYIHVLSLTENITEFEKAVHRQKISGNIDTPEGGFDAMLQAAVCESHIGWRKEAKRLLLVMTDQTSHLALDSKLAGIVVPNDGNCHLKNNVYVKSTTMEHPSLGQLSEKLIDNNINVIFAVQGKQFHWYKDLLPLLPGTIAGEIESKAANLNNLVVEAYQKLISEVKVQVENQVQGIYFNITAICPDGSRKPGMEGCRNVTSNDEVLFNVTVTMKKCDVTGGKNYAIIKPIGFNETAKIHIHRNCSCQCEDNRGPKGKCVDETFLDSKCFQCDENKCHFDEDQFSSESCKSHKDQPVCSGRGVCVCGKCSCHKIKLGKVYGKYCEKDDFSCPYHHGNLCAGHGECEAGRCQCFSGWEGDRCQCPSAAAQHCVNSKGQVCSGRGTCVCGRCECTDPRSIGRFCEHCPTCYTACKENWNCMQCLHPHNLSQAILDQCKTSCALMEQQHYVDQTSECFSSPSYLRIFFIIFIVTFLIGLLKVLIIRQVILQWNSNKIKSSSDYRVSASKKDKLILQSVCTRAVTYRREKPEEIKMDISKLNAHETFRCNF
method notes: Inhibition of integrin alphavbeta8 (unknown origin)-mediated K562 cell adhesion to LAPb1 coated surface by fluorescence analysis
assay readout: IC50 (nM)

Answered cases to consult:
O=C(O)CC(NC(=O)CCCCc1ccc2c(n1)NCCC2)c1ccc(-c2ccccc2)cc1 (racemic) : 316
O=C(O)CC(NC(=O)CCCCc1ccc2c(n1)NCCC2)c1cccc(Cl)c1 (racemic) : 501
Cc1ccccc1C(CC(=O)O)NC(=O)CCCCc1ccc2c(n1)NCCC2 (racemic) : 1260
Cc1ccc(C(CC(=O)O)NC(=O)CCCCc2ccc3c(n2)NCCC3)cc1C (racemic) : 501
O=C(O)CC(NC(=O)CCCCc1ccc2c(n1)NCCC2)c1ccc(OC(F)(F)F)cc1 (racemic) : 794

A: O=C(O)CC(NC(=O)CCCCc1ccc2c(n1)NCCC2)c1cccc(Cl)c1Cl (racemic)
B: O=C(O)CC(NC(=O)CCCCc1ccc2c(n1)NCCC2)c1ccc2c(c1)OCO2 (racemic)
# query: argmin of IC50 over A and B Could you answer with the label of the item you picked?
B
(B: 794 nM, A: 10000 nM)

a: O=C(O)CC(NC(=O)CCCCc1ccc2c(n1)NCCC2)c1ccc(Cl)c(Cl)c1 (racemic)
b: O=C(O)CC(NC(=O)CCCCc1ccc2c(n1)NCCC2)c1ccc(Cl)cc1 (racemic)
# query: argmin of IC50 over a and b Could you answer with the label of the item you picked?
a

###

method notes: Lipophilicity, log D of the compound by HPLC chromatographic method
Format: physicochemical
assay readout: logD

O=C(O)CC(NC(=O)CCCCc1ccc2c(n1)NCCC2)c1cc(Cl)cc(Cl)c1 (single isomer, unassigned; enantiomer 2) : 2.8
O=C(O)CC(NC(=O)CCCCc1ccc2c(n1)NCCC2)c1ccc(Cl)c(C(F)(F)F)c1 (single isomer, unassigned; enantiomer 1) : 3.28
O=C(O)CC(NC(=O)CCCCc1ccc2c(n1)NCCC2)c1ccc(Cl)c(C(F)(F)F)c1 (single isomer, unassigned; enantiomer 2) : 3.25
O=C(O)CC(NC(=O)CCCCc1ccc2c(n1)NCCC2)c1cc(Cl)cc(Cl)c1 (stereo in doubt; 37E1) : 2.97

###

study system: Integrin alpha-V/beta-5 (Homo sapiens, UniProt P06756+P18084)
Sequence (P06756 31-889 limits assumed): as the sequence (P06756 31-889 limits assumed) above
Sequence (P06756 891-1048 limits assumed): as the sequence (P06756 891-1048 limits assumed) above
Sequence (P18084 24-799 limits assumed): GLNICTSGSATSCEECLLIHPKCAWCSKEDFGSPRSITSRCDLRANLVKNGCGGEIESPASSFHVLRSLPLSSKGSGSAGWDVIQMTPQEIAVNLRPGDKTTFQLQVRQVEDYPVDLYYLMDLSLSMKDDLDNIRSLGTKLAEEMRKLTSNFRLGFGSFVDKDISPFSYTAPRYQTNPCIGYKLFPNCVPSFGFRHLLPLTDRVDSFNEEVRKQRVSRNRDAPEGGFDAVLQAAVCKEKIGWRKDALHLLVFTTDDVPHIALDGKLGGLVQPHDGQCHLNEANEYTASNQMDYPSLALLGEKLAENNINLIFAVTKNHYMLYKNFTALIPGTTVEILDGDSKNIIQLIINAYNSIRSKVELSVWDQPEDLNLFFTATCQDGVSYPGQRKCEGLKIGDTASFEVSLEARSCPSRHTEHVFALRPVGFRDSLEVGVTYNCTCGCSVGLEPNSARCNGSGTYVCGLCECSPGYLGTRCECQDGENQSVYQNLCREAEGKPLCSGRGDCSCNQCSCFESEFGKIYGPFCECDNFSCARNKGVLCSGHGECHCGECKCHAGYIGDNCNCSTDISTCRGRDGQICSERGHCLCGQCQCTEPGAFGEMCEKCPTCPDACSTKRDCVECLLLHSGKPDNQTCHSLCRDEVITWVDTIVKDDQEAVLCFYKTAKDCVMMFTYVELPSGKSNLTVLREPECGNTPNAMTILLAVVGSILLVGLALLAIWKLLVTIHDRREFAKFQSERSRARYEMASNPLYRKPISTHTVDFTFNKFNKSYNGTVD
method notes: Inhibition of integrin alphavbeta5 (unknown origin)-mediated K562 cell adhesion to vitronectin coated surface by fluorescence analysis
assay readout: IC50 (µM)

Answered cases to consult:
O=C(O)CC(NC(=O)CCCCc1ccc2c(n1)NCCC2)c1cc(Cl)cc(Cl)c1 (stereo in doubt; 37E1) : 1
O=C(O)CC(NC(=O)CCCCc1ccc2c(n1)NCCC2)c1ccc(Cl)c(C(F)(F)F)c1 (racemic) : 0.126
O=C(O)CC(NC(=O)CCCCc1ccc2c(n1)NCCC2)c1ccc(Cl)c(Cl)c1 (racemic) : 0.1
O=C(O)CC(NC(=O)CCCCc1ccc2c(n1)NCCC2)c1cc(Cl)cc(Cl)c1 (single isomer, unassigned; enantiomer 2) : 0.251
O=C(O)CC(NC(=O)CCCCc1ccc2c(n1)NCCC2)c1ccc2c(c1)OCO2 (racemic) : 0.0126

P: O=C(O)CC(NC(=O)CCCCc1ccc2c(n1)NCCC2)c1cccc(Cl)c1 (racemic)
Q: COc1ccc(C(CC(=O)O)NC(=O)CCCCc2ccc3c(n2)NCCC3)cc1 (racemic)
// compare measured IC50, left P , right Q , return larger Could you answer with the label of the item you picked?
Q
(Q: 0.0501 µM, P: 0.0251 µM)
